Would you mind telling me the reported pKd of each entry?
- tested_system: NANPNVDP (Plasmodium falciparum)
- method_summary: BLI, target on sensor
In plain terms, pKd is the concentration in mol/L turned into minus its base-10 logarithm.

Problem: Quick check: pKd of AB-007039 (antibody, V domains shown) VH: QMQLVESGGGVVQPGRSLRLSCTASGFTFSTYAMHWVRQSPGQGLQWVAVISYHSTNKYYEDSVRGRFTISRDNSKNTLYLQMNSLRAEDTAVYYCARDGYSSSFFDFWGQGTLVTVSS VL: DIQMTQSPSTLSASVGDRVAITCRASQSISRWLAWYQQQPGKAPKLLMSGASVLESGVPSRFSGSGSGTEFTLTISSLQPDDFATYYCQHYNSYSVTFGQGTKVEIK ?
Result: 7.82

Problem: Quick check: pKd of AB-007059 (antibody, V domains shown) VH: QMQLVESGGGVVQPGRSLRLSCTASGFTFSTYAMHWVRQSPGQGLQWVAVISYHSTNKYYEDSVRGRFTISRDNSKNTLYLQMNSLRAEDTAVYYCARDGYSSTFFDFWGQGTLVTVSS VL: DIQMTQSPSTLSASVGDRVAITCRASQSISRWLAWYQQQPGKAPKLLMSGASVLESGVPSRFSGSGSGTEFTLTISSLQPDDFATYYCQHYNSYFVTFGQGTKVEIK ?
Result: 7.59

Problem: Quick check: pKd of AB-007057 (antibody, V domains shown) VH: QMQLVESGGGVVQPGRSLRLSCTASGFTFSTYAMHWVRQSPGQGLQWVAVISYHSTNKYYEDSVRGRFTISRDNSKNTLYLQMNSLRAEDTAVYYCARDGYHSSFFDFWGQGTLVTVSS VL: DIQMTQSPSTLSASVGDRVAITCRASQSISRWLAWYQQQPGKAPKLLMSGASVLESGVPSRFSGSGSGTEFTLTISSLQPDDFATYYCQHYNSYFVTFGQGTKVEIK ?
Result: 7.82

Problem: Quick check: pKd of AB-007035 (antibody, V domains shown) VH: QMQLVESGGGVVQPGRSLRLSCTASGFTFSSYAMHWVRQSPGQGLQWVAVISYHSTNKYYEDSVRGRFTISRDNSKNTLYLQMNSLRAEDTAVYYCARDGYSSSFFDFWGQGTLVTVSS VL: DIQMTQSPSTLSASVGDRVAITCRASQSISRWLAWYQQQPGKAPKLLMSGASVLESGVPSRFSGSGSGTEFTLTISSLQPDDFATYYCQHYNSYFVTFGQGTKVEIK ?
Result: 8.03

Problem: Quick check: pKd of AB-007056 (antibody, V domains shown) VH: QMQLVESGGGVVQPGRSLRLSCTASGFTFSTYAMHWVRQSPGQGLQWVAVISYHSTNKYYEDSVRGRFTISRDNSKNTLYLQMNSLRAEDTAVYYCARDGYQSSFFDFWGQGTLVTVSS VL: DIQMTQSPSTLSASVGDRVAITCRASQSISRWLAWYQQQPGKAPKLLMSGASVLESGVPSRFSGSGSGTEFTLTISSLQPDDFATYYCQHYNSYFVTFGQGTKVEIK ?
Result: 7.53

// data source = patent US20220195023A1
